Origin of measurements: patent US20110212968A1

Entries and their IC50 values follow.
- Experimental target: human orexin-1 receptor (Homo sapiens)
- Construct: expressed in transfected cells; host or cells: CHO (Chinese hamster ovary) cells, kept under G418 selection
- Sequence (O43613 whole entry): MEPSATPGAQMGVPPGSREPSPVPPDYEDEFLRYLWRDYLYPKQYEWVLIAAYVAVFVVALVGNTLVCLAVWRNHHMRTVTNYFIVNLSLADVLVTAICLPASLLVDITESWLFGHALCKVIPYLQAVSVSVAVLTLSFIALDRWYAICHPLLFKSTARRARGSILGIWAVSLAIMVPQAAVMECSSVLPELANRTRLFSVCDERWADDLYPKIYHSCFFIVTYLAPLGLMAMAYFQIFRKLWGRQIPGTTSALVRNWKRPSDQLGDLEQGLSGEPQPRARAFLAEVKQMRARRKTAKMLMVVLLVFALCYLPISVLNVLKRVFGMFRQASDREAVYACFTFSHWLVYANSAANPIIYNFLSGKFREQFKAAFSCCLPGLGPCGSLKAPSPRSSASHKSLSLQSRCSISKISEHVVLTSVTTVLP
- Method description: Intracellular calcium measurement (FLIPR Tetra), orexin receptor antagonistic activity, OX1
- Assay type: cell-based
- Details: CHO cells expressing human orexin-1 receptor, 3 nM orexin-A, conditions A

Illustrative cases are given below, each with its answer.
Query :: Param request: IC50 | system human orexin-1 receptor (Homo sapiens) | item `COc1ccc(CCN(CC2CC2)C(=O)c2sc(C)nc2-c2ccc(F)cc2)cc1OC`
Result :: > 10 µM

Query :: Param request: IC50 | system human orexin-1 receptor (Homo sapiens) | item COc1ccc(C(O)CN(CC2CC2)C(=O)c2nccnc2-c2ccccc2)cc1OC (stereo not drawn)
Result :: > 10 µM

Please examine the following record next.
Query :: Param request: IC50 | system human orexin-1 receptor (Homo sapiens) | item COc1ccc(C(O)CN(CC2CC2)C(=O)c2ncsc2-c2cccc(C(F)(F)F)c2)cc1OC (stereo not drawn)
Result :: > 10 µM
